- Tested on: CCRF-CEM
- assay-text: Cytotoxicity in the absence of thymidine and presence of hypoxanthine against CCRF-CEM cell line
- Format: functional, cell-based
- condition-description: Homo sapiens
pIC50: −log10 of the molar value.
measured-quantity: pIC50

> print(dat)
                                   compound  sign  value.reported
1  COC(=O)c1ccc(CN(CCc2c(N)nc(N)nc2O)c2cc(F)ccc2[N+](=O)[O-])cc1     =            4.14
2  Nc1nc(N)c(CCCNc2cc(F)c([N+](=O)[O-])cc2[N+](=O)[O-])c(O)n1     =            6.00
3  COC(=O)c1ccc(CN(CCCc2c(N)nc(N)nc2O)c2cc(F)cc(F)c2[N+](=O)[O-])cc1     <            4.00
4  Nc1nc2c(c(=O)[nH]1)C[C@@H](CCc1ccc(C(=O)N[C@@H](CCC(=O)O)C(=O)O)cc1)CN2 [LOMETREXOL]     <            4.00
5  COC(=O)c1ccc(CN(CCc2c(N)nc(N)nc2O)c2ccc([N+](=O)[O-])c(F)c2F)cc1     =            4.44
6  COC(=O)c1ccc(CN(CCCc2c(N)nc(N)nc2O)c2cc(F)ccc2[N+](=O)[O-])cc1     =            4.26
7  Nc1nc(N)c(CCCNc2cc(F)ccc2[N+](=O)[O-])c(O)n1     <            4.00
8  COC(=O)c1ccc(CN(CCc2c(N)nc(N)nc2O)c2cc(F)c(F)cc2[N+](=O)[O-])cc1     =            4.96

---

- subject-of-test: Trifunctional purine biosynthetic protein adenosine-3 (Homo sapiens) (UniProt P22102)
- Sequence (P22102 whole entry): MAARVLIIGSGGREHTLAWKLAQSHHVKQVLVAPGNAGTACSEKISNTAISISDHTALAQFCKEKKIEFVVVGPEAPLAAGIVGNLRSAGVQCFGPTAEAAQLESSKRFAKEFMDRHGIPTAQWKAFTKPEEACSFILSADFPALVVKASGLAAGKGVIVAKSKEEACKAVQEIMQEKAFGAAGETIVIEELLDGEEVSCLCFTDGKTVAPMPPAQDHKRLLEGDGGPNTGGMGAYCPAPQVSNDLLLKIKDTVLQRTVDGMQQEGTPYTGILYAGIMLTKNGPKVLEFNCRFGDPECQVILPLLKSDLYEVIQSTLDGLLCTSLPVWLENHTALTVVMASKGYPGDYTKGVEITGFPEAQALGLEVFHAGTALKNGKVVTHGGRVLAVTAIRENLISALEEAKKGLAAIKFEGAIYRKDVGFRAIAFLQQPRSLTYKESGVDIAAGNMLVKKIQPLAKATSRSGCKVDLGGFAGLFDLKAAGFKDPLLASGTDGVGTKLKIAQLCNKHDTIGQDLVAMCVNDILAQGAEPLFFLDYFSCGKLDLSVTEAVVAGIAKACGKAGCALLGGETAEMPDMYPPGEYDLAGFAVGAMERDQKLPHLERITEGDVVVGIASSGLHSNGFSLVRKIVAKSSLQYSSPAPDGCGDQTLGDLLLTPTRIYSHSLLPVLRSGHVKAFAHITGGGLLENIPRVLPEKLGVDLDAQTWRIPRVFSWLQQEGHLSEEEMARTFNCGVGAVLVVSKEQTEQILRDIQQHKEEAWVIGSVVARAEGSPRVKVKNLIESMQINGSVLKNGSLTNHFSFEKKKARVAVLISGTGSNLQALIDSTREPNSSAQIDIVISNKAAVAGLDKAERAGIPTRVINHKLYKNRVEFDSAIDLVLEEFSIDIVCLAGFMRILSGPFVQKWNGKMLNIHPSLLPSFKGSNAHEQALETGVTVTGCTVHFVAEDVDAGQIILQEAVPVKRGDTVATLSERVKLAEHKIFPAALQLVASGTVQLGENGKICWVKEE
- assay-text: In vitro inhibitory activity against Glycinamide ribonucleotide transformylase (GAR Tfase) following 3 min pre-incubation at 250 uM concentration
Decision: inhibition >= 60% yields true (1), all other cases yield false (0).

> print(dat)
                               entry.smiles  label.class
1  COC(=O)c1ccc(CN(CCCc2c(N)nc(N)nc2O)c2cc(F)c([N+](=O)[O-])cc2[N+](=O)[O-])cc1    false (0)
2  COC(=O)c1ccc(CN(CCCc2c(N)nc(N)nc2O)c2cc(F)cc(F)c2[N+](=O)[O-])cc1    false (0)
3  Nc1nc(N)c(CCCNc2cc(F)cc(F)c2[N+](=O)[O-])c(O)n1     true (1)
4  COC(=O)c1ccc(CN(CCc2c(N)nc(N)nc2O)c2ccc([N+](=O)[O-])c(F)c2F)cc1     true (1)
